Sourced from patent US12023323B2

- System: ZIKV GFP RVPs
- measurementConditions: Table 3; Vero cells
Reported therapeutic index (TC50/IC50) values are given for each entry in this list.

// solved cases for therapeutic index (TC50/IC50) follow
- compound: "Oc1cccc(CNCc2cc(CNCc3cccc(O)c3)cc(-c3cc(CNCc4cccc(O)c4)cc(CNCc4cccc(O)c4)c3)c2)c1"
  targetOfAssay: "ZIKV GFP RVPs"
  therapeutic index (TC50/IC50): 20
- compound: "Oc1ccccc1CNCc1cc(CNCc2ccccc2O)cc(-c2cc(CNCc3ccccc3O)cc(CNCc3ccccc3O)c2)c1"
  targetOfAssay: "ZIKV GFP RVPs"
  therapeutic index (TC50/IC50): 2

therapeutic index (TC50/IC50) for `c1ccc2c(CNCc3cc(CNCc4c[nH]c5ccccc45)cc(-c4cc(CNCc5c[nH]c6ccccc56)cc(CNCc5c[nH]c6ccccc56)c4)c3)c[nH]c2c1` ?
153

therapeutic index (TC50/IC50) for `c1cc(CNCc2cc(CNCc3cc[nH]c3)cc(-c3cc(CNCc4cc[nH]c4)cc(CNCc4cc[nH]c4)c3)c2)c[nH]1` ?
66

therapeutic index (TC50/IC50) for `c1ccc(CNCc2cc(CNCc3ccccn3)cc(-c3cc(CNCc4ccccn4)cc(CNCc4ccccn4)c3)c2)nc1` ?
9

therapeutic index (TC50/IC50) for `c1ccc2[nH]c(CNCc3cc(CNCc4cc5ccccc5[nH]4)cc(-c4cc(CNCc5cc6ccccc6[nH]5)cc(CNCc5cc6ccccc6[nH]5)c4)c3)cc2c1` ?
2
